# System: Synaptosomal Uptake of Norepinephrine (NE), rat hypothalmus
# TEST DESCRIPTION: Blockade of synaptosomal uptake of norepinephrine (NE) in vitro
# Format: biochemical, rat (Sprague-Dawley CD)
# EXPERIMENTAL CONDITIONS: Examples 26-49
# Description: Sprague-Dawley CD male rats weighing 180-220 g. (Charles River Laboratories, Inc.; Wilmington, Mass.) were used in this procedure. […] Uptake was calculated as picomoles 5HT, DA or NE per mg. protein (protein was determined by measurement with Folin phenol reagent).
pIC50: −log10 of the molar value. Counter-ions that a name gives are not always drawn.
Recorded pIC50 by entry

{"COMPOUND": "CN(C)[C@H]1CC[C@@H](c2ccc(C(F)(F)F)cc2)c2ccccc21 (relative stereo)", "pIC50": 4.85}
{"COMPOUND": "CN(C)[C@H]1CC[C@@H](c2cccc(C(F)(F)F)c2)c2ccccc21 (relative stereo)", "pIC50": 6.05}
{"COMPOUND": "CN[C@H]1CC[C@@H](c2ccc(OC)cc2)c2ccccc21 (relative stereo) [Example 17, Hydrochloride]", "pIC50": 5.52}
{"COMPOUND": "CN[C@H]1CC[C@@H](c2ccc(C(F)(F)F)cc2)c2ccccc21 [Example 9]", "pIC50": 5.03}

Sourced from patent US4536518A
